B1: TPR t1 (parent)
chain: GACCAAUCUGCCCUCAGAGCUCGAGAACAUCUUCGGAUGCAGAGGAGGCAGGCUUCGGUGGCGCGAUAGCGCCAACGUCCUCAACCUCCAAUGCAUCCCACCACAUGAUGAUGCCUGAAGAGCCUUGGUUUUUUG

- Variants of: B1
- TEST PROTOCOL: polymerase ribozyme fitness, log enrichment relative to wild type (log ratio); higher = more active; in vitro selection for triplet polymerase activity
The label depends only on polymerase ribozyme fitness (log ratio): class 1 if it is at least -1, class 0 if it is smaller.

POLYMER SEQUENCE	LABEL VALUE
GACCAAUAUGCCCUCAGAGCUCGAGAACAUCUUCGGAUGCAGAGGAGGCAGGCUUCGGUGGCGCGAUAGCGCCAACGUCCUCAUCCUCCAAUGCAUCCCACCACAUGAUGAUGCCUGAAGAGCCUUGGUUUUUUG	class 1
GACCAAUCUGCCCUCAGAGCUCGAGAACAUCUUCGGAUGCUGAGGAGGCAGGCUUCGGUGGCGCGAUAGCGGCAACGACCUCUACCUCCAAUGCAUCCCACCACAUGAUGAUGCCUGAAGAGCCUUGGUUUUUUG	class 0
GACCAAUCUGCCCUCAGAGCUCGAGAACAUCUUCGGAUGCAGAGGAGGCAGGCUUCGGUGGCGCGAUAGCGCCAACGUCCUCAACCUCCAAUGCAUUCCACCACAUGAUGAUGCCUGAAGUGCCUUGGUUUUUUG	class 1
GACCAGUCUGCCCUCAGAGCUCGAGAACAUCUUCGGAUGCAGAGGAGGCAGGCUUCGGUGGCGCGAUAGCGCCAACGUCCUCAAUCUCCAAUGCAUCCCACCACAUGAUGAUACCUGAAGAGCCUUGGUUUUUUG	class 0
GACCAAUCUGCCCUCAGAGCUCGAGAACAUCUUCGGAUGCAGAGGAGGCAGGCUUCGGUGGCGCGAUAGCGCCAACGUCCUAAACAUCCAAUGCAUCCCACCACAUGAUGAUGCCUGAAGAGCCUUGGUUUUUUG	class 1
GACCAAUAUGCCCUCAGAGCUCGAGAACAUCUUCGGAUGCAGAGGAGGCAGGCUUCGGUGGCGCGAUAGCGCCAACGUCCUCAACCUCCAAUACAUCCCACCACAUGAUGAUGCCUGAAGAGCCUUGGUUUUUUG	class 1
GACCAAUCUGCCCUCAGAGCUCGAGAACAUCUUCGGAUGCAGAGGAGGCAGGCUUCGGUGGCGCGAUAGCUCCAACGUCCUCAACCUCCAAUGCAUCCCACCACAUGAUGAUGCCUGAAGAGCCUUGGUUAUUUG	class 1
GACCAAUCUGCCCUCAGAGCUCGAGAAUAUCUUCGGAUGCAGAGGAGGCAGGCUUCGGUAGCGCGAUAGCGGCAACGUCCUCAACCUCCAAUGCAUCCCACCACAUGAUCAUGCGUGAAUAGCCUUGGUUUUUUG	class 0

Query string: hey, is polymerase ribozyme fitness (log ratio) for this one >= -1? GACCAAUCUGCCCUCAGAGCUCGAGAACAUCUUCGGAUGCAGAGGAGGCAGGCUUCGGUGGCGCGAUAGCACCAACGUCCUCAUCCUCCAAUGCAUCCCACCACAUGAUGAAGCCUGAAGAGCCUUGGUUAUUUG
Result string: class 1

Source of measurements: the RNAGym collection of RNA variant scans (doi:10.1073/pnas.2313332121)
